Parameter: T cell response relative to baseline (None = 1.0), 10 μM HEL E^d, first value. Scope: all listed entries.
- ASSAY SYSTEM: murine E^d MHC class II allele (Mus musculus, UniProt P01904+P01915)
- Sequence (P01904 26-255): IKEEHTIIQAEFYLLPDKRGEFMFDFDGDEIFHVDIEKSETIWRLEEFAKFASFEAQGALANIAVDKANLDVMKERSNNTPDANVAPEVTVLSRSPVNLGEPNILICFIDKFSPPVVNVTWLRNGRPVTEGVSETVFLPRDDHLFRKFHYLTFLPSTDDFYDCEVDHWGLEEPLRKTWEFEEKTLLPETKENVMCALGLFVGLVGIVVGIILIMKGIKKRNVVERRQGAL
- Sequence (P01915 27-264 limits assumed): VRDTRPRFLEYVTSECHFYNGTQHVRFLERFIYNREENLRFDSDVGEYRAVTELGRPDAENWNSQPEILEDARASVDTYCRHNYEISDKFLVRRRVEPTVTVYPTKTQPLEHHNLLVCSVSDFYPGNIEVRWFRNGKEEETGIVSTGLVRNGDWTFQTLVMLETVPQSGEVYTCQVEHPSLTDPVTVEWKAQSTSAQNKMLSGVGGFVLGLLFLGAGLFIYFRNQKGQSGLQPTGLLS
- PROTOCOL TEXT: processed antigen assay, E^d allele (APC pulsed with native HEL)
- Assay type: cell-based
- Design: The A20 and CH27 B cell lymphoma lines express H-2^d and H-2^k alleles, respectively; endogenous in cells; host or cells: A20 B cell lymphoma (mitomycin C-treated or paraformaldehyde-fixed)
- DETAILS: Table 29; native HEL prepulse 10 μM; AE peptide 64 μM; supernatant dilution 1:4 (first value)
Non-standard residues stand in square brackets, D forms with d. hArg = N=C(N)NCCCC[C@H](N)C(=O)O; Cit = NC(=O)NCCC[C@H](N)C(=O)O
MEASUREMENT KIND: T cell response relative to baseline (None = 1.0), 10 μM HEL E^d, first value

SUBSTANCE	VALUE MEASURED
Ac-LRMK E PK-NH2 (Ac-LRMKEPK-NH2) [AE231]	0.94,
Ac-LRMK Cit PK-NH2 (Ac-LRMK[Cit]PK-NH2; SMILES CSCC[C@H](NC(=O)[C@H](CCCNC(=N)N)NC(=O)[C@H](CC(C)C)NC(C)=O)C(=O)N[C@@H](CCCCN)C(=O)N[C@@H](CCCNC(N)=O)C(=O)N1CCC[C@H]1C(=O)N[C@@H](CCCCN)C(N)=O) [AE226]	0.68,
Ac-LRMK D PK-NH2 (Ac-LRMKDPK-NH2) [AE230]	0.93,
Ac-LRMK H PK-NH2 (Ac-LRMKHPK-NH2) [AE228]	0.41,
Ac-LRMK F PK-NH2 (Ac-LRMKFPK-NH2) [AE234]	0.65,
Ac-LRMK M PK-NH2 (Ac-LRMKMPK-NH2) [AE236]	0.56,
Ac-LRMK N PK-NH2 (Ac-LRMKNPK-NH2) [AE232]	0.68,
Ac-LRMK Q PK-NH2 (Ac-LRMKQPK-NH2) [AE233]	0.53,
Ac-LRMKLPK-NH2 [AE114]	0.29,
Ac-LRMK Y PK-NH2 (Ac-LRMKYPK-NH2; not fully specified; printed as Ac-LRMK Y PK-NH2) [AE235]	0.42,
Ac-LRMK HArg PK-NH2 (Ac-LRMK[hArg]PK-NH2; SMILES CSCC[C@H](NC(=O)[C@H](CCCNC(=N)N)NC(=O)[C@H](CC(C)C)NC(C)=O)C(=O)N[C@@H](CCCCN)C(=O)N[C@@H](CCCCNC(=N)N)C(=O)N1CCC[C@H]1C(=O)N[C@@H](CCCCN)C(N)=O) [AE227]	0.18,
Ac-LRMK K PK-NH2 (Ac-LRMKKPK-NH2) [AE229]	0.55,
